B1: SLC2A12 (parent)
chain: TRIMIGLTLVFFVQITGQPNILFY

- Variants of: B1
- ASSAY METHOD TEXT: protein stability index of a GFP-peptide fusion (GPS, HEK-293T) (PSI 1-6); higher = more stable;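 also: lentivirally expressed fusions sorted by FACS into six bins by GFP to DsRed ratio, PSI derived from sequencing read proportions per bin multiplied by bin number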
- RECORDED CONDITIONS: c terminus: a fixed tail appended
Could you label it rule met if measured protein stability index is 3 or higher, and rule not met otherwise?

Input line: Entry T1Y : is its protein stability index no less than 3?
Output line: rule met

Input line: Entry Q14F : is its protein stability index no less than 3?
Output line: rule not met

Input line: Entry G17V : is its protein stability index no less than 3?
Output line: rule not met

Input line: Entry I3S : is its protein stability index no less than 3?
Output line: rule met

Input line: Entry G6Q : is its protein stability index no less than 3?
Output line: rule not met

Input line: Entry I5F : is its protein stability index no less than 3?
Output line: rule met

Input line: Entry I5L : is its protein stability index no less than 3?
Output line: rule met

Input line: Entry T16N : is its protein stability index no less than 3?
Output line: rule met

Input line: Entry F12V : is its protein stability index no less than 3?
Output line: rule met

Input line: Entry I3F : is its protein stability index no less than 3?
Output line: rule not met

Input line: Entry I3N : is its protein stability index no less than 3?
Output line: rule not met

Input line: Entry Y24H : is its protein stability index no less than 3?
Output line: rule not met

Input line: Entry I5G : is its protein stability index no less than 3?
Output line: rule met

Input line: Entry I15F : is its protein stability index no less than 3?
Output line: rule met

Input line: Entry Q18V : is its protein stability index no less than 3?
Output line: rule met

Input line: Entry T1A : is its protein stability index no less than 3?
Output line: rule not met

Input line: Entry I21E : is its protein stability index no less than 3?
Output line: rule met

Input line: Entry Y24P : is its protein stability index no less than 3?
Output line: rule met

Input line: Entry G6Y : is its protein stability index no less than 3?
Output line: rule not met

Input line: Entry Q18C : is its protein stability index no less than 3?
Output line: rule not met

Input line: Entry F12M : is its protein stability index no less than 3?
Output line: rule not met

Input line: Entry F23P : is its protein stability index no less than 3?
Output line: rule met

Input line: Entry Y24C : is its protein stability index no less than 3?
Output line: rule met

Input line: Entry Q14L : is its protein stability index no less than 3?
Output line: rule met

Input line: Entry T1S : is its protein stability index no less than 3?
Output line: rule met

Input line: Entry Q14A : is its protein stability index no less than 3?
Output line: rule met

Input line: Entry I21D : is its protein stability index no less than 3?
Output line: rule met

Input line: Entry I21W : is its protein stability index no less than 3?
Output line: rule met

Input line: Entry R2C : is its protein stability index no less than 3?
Output line: rule not met

Input line: Entry I3Y : is its protein stability index no less than 3?
Output line: rule met

Input line: Entry Q14D : is its protein stability index no less than 3?
Output line: rule not met

Input line: Entry P19V : is its protein stability index no less than 3?
Output line: rule met

Input line: Entry I3P : is its protein stability index no less than 3?
Output line: rule not met

Input line: Entry L22D : is its protein stability index no less than 3?
Output line: rule met

Input line: Entry I21L : is its protein stability index no less than 3?
Output line: rule not met

Input line: Entry V13M : is its protein stability index no less than 3?
Output line: rule met

Input line: Entry R2G : is its protein stability index no less than 3?
Output line: rule met

Input line: Entry I21N : is its protein stability index no less than 3?
Output line: rule not met

Input line: Entry F11I : is its protein stability index no less than 3?
Output line: rule met

Input line: Entry V13A : is its protein stability index no less than 3?
Output line: rule met

Input line: Entry P19T : is its protein stability index no less than 3?
Output line: rule met

Input line: Entry N20Q : is its protein stability index no less than 3?
Output line: rule not met

Input line: Entry L7D : is its protein stability index no less than 3?
Output line: rule not met

Input line: Entry T1W : is its protein stability index no less than 3?
Output line: rule met

Input line: Entry R2M : is its protein stability index no less than 3?
Output line: rule met

Input line: Entry T16S : is its protein stability index no less than 3?
Output line: rule met

Input line: Entry Y24A : is its protein stability index no less than 3?
Output line: rule met

Input line: Entry Q14K : is its protein stability index no less than 3?
Output line: rule met

Input line: Entry I15H : is its protein stability index no less than 3?
Output line: rule not met

Input line: Entry V10H : is its protein stability index no less than 3?
Output line: rule met

Input line: Entry N20S : is its protein stability index no less than 3?
Output line: rule not met

Input line: Entry Y24S : is its protein stability index no less than 3?
Output line: rule not met

Input line: Entry F23A : is its protein stability index no less than 3?
Output line: rule met

Input line: Entry L22W : is its protein stability index no less than 3?
Output line: rule not met

Input line: Entry M4T : is its protein stability index no less than 3?
Output line: rule not met

Input line: Entry L7N : is its protein stability index no less than 3?
Output line: rule not met

Input line: Entry T16A : is its protein stability index no less than 3?
Output line: rule not met

Input line: Entry I3R : is its protein stability index no less than 3?
Output line: rule not met

Input line: Entry Y24T : is its protein stability index no less than 3?
Output line: rule met

Input line: Entry T8D : is its protein stability index no less than 3?
Output line: rule not met

Input line: Entry G6L : is its protein stability index no less than 3?
Output line: rule not met

Input line: Entry Y24G : is its protein stability index no less than 3?
Output line: rule not met

Input line: Entry V10Y : is its protein stability index no less than 3?
Output line: rule not met

Input line: Entry I15Y : is its protein stability index no less than 3?
Output line: rule met

Input line: Entry T1K : is its protein stability index no less than 3?
Output line: rule not met

Input line: Entry F12L : is its protein stability index no less than 3?
Output line: rule met

Input line: Entry V10T : is its protein stability index no less than 3?
Output line: rule met

Input line: Entry N20H : is its protein stability index no less than 3?
Output line: rule met

Input line: Entry Y24N : is its protein stability index no less than 3?
Output line: rule not met

Input line: Entry I5T : is its protein stability index no less than 3?
Output line: rule not met
